What kcat/Km was measured for each of the following?
- Substrate: O=C(O)CCC(=O)C1=CC=C[C@@H](O)[C@@H]1C(=O)O
- experimentSummary: purified protein
- Format: biochemical, Thermobifida fusca
- assayContext: 50 mM Tris pH 8.0, 0.1 mM MnCl2, 25°C
One number for each entry, in M⁻¹ s⁻¹.

Known kcat/Km results, listed for orientation:
T. fusca OSBS (Thermobifida fusca YX; N71A) (protein) MTGRAFAIPLRTRFRGITVREGMLVRGAAGWGEFSPFAEYGPRECARWWAACYEAAELGWPAPVRDTVPVAATVPAVGPEEAARIVASSGCTTAKVKVAERGQSEANDVARVEAVRDALGPRGRVRIDVNGAWDVDTAVRMIRLLDRFELEYVEQPCATVDELAEVRRRVSVPIAADESIRRAEDPLRVRDAEAADVVVLKVQPLGGVRAALRLAEECGLPVVVSSAVETSVGLAAGVALAAALPELPYACGLATLRLLHADVCDDPLLPVHGVLPVRRVDVSEQRLAEVEIDPAAWQARLAAARAAWEQVEREPGP : 31000
T. fusca OSBS (Thermobifida fusca YX; G252T) (protein) MTGRAFAIPLRTRFRGITVREGMLVRGAAGWGEFSPFAEYGPRECARWWAACYEAAELGWPAPVRDTVPVNATVPAVGPEEAARIVASSGCTTAKVKVAERGQSEANDVARVEAVRDALGPRGRVRIDVNGAWDVDTAVRMIRLLDRFELEYVEQPCATVDELAEVRRRVSVPIAADESIRRAEDPLRVRDAEAADVVVLKVQPLGGVRAALRLAEECGLPVVVSSAVETSVGLAAGVALAAALPELPYACTLATLRLLHADVCDDPLLPVHGVLPVRRVDVSEQRLAEVEIDPAAWQARLAAARAAWEQVEREPGP : 19000
T. fusca OSBS (Thermobifida fusca YX; G252A) (protein) MTGRAFAIPLRTRFRGITVREGMLVRGAAGWGEFSPFAEYGPRECARWWAACYEAAELGWPAPVRDTVPVNATVPAVGPEEAARIVASSGCTTAKVKVAERGQSEANDVARVEAVRDALGPRGRVRIDVNGAWDVDTAVRMIRLLDRFELEYVEQPCATVDELAEVRRRVSVPIAADESIRRAEDPLRVRDAEAADVVVLKVQPLGGVRAALRLAEECGLPVVVSSAVETSVGLAAGVALAAALPELPYACALATLRLLHADVCDDPLLPVHGVLPVRRVDVSEQRLAEVEIDPAAWQARLAAARAAWEQVEREPGP : 190000
T. fusca OSBS (Thermobifida fusca YX; R15A) (protein) MTGRAFAIPLRTRFAGITVREGMLVRGAAGWGEFSPFAEYGPRECARWWAACYEAAELGWPAPVRDTVPVNATVPAVGPEEAARIVASSGCTTAKVKVAERGQSEANDVARVEAVRDALGPRGRVRIDVNGAWDVDTAVRMIRLLDRFELEYVEQPCATVDELAEVRRRVSVPIAADESIRRAEDPLRVRDAEAADVVVLKVQPLGGVRAALRLAEECGLPVVVSSAVETSVGLAAGVALAAALPELPYACGLATLRLLHADVCDDPLLPVHGVLPVRRVDVSEQRLAEVEIDPAAWQARLAAARAAWEQVEREPGP : 86000

Look at each protein and report its kcat/Km.
1. T. fusca OSBS (Thermobifida fusca YX; R126M) (protein) MTGRAFAIPLRTRFRGITVREGMLVRGAAGWGEFSPFAEYGPRECARWWAACYEAAELGWPAPVRDTVPVNATVPAVGPEEAARIVASSGCTTAKVKVAERGQSEANDVARVEAVRDALGPRGRVMIDVNGAWDVDTAVRMIRLLDRFELEYVEQPCATVDELAEVRRRVSVPIAADESIRRAEDPLRVRDAEAADVVVLKVQPLGGVRAALRLAEECGLPVVVSSAVETSVGLAAGVALAAALPELPYACGLATLRLLHADVCDDPLLPVHGVLPVRRVDVSEQRLAEVEIDPAAWQARLAAARAAWEQVEREPGP
2. T. fusca OSBS (Thermobifida fusca YX) (protein) MTGRAFAIPLRTRFRGITVREGMLVRGAAGWGEFSPFAEYGPRECARWWAACYEAAELGWPAPVRDTVPVNATVPAVGPEEAARIVASSGCTTAKVKVAERGQSEANDVARVEAVRDALGPRGRVRIDVNGAWDVDTAVRMIRLLDRFELEYVEQPCATVDELAEVRRRVSVPIAADESIRRAEDPLRVRDAEAADVVVLKVQPLGGVRAALRLAEECGLPVVVSSAVETSVGLAAGVALAAALPELPYACGLATLRLLHADVCDDPLLPVHGVLPVRRVDVSEQRLAEVEIDPAAWQARLAAARAAWEQVEREPGP
3. T. fusca OSBS (Thermobifida fusca YX; F37A) (protein) MTGRAFAIPLRTRFRGITVREGMLVRGAAGWGEFSPAAEYGPRECARWWAACYEAAELGWPAPVRDTVPVNATVPAVGPEEAARIVASSGCTTAKVKVAERGQSEANDVARVEAVRDALGPRGRVRIDVNGAWDVDTAVRMIRLLDRFELEYVEQPCATVDELAEVRRRVSVPIAADESIRRAEDPLRVRDAEAADVVVLKVQPLGGVRAALRLAEECGLPVVVSSAVETSVGLAAGVALAAALPELPYACGLATLRLLHADVCDDPLLPVHGVLPVRRVDVSEQRLAEVEIDPAAWQARLAAARAAWEQVEREPGP

A:
220000
670000
250000

This collection of values is drawn from paper PMC3908897.
